Target Of Assay: Nuclear receptor subfamily 1 group I member 2 (Rattus norvegicus) (UniProt Q9R1A7)
Sequence (Q9R1A7 whole entry, looked up): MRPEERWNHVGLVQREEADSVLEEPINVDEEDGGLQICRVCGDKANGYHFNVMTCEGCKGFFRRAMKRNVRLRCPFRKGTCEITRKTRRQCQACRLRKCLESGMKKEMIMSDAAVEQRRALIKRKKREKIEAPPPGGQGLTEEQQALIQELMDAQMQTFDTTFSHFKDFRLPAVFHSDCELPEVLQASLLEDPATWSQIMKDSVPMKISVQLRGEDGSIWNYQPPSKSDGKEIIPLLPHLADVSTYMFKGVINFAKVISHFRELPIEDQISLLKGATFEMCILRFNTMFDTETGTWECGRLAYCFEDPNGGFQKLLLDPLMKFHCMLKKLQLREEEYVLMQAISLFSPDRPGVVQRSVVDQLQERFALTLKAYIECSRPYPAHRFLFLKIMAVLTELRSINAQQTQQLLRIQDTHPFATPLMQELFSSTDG
Protocol Notes: qHTS assay for small molecule activators of the rat pregnane X receptor (rPXR) signaling pathway (AID 651751); further: 0% is about no effect
Conditions: rPXR reporter cells, luciferase (One-Glo), 24 h
Assay Metric: max response (%)
One number for each entry, in %.

Dear reader, for each entry below, please note its max response.
1. CNC(=O)O/N=C/C(C)(C)S(C)(=O)=O
2. O=P(O)(O)CN(CP(=O)(O)O)CP(=O)(O)O
3. COC(=O)c1ccccc1CS(=O)(=O)NC(=O)Nc1nc(OC)cc(OC)n1
4. O=C(O)[C@@H]1[C@H](C(=O)O)[C@@]2(Cl)C(Cl)=C(Cl)[C@]1(Cl)C2(Cl)Cl
5. C#CCN1C(=O)COc2cc(F)c(N3C(=O)C4=C(CCCC4)C3=O)cc21
6. O=[N+]([O-])c1ccc2ccc3cccc4ccc1c2c34
7. CCOP(OCC)OCC
8. CCOP(=S)(OCC)SCCl

Found:
1: 1.26; 2: -1.66; 3: -0.458; 4: 4.23; 5: 6.57; 6: 3; 7: 0.674; 8: -4.02

Dear reader, for each entry below, please note its max response.
1. CCNc1nc(Cl)nc(NC(C)(C)C)n1
2. Brc1ccc(Br)cc1

Found:
1: 4.19; 2: -2.46

====

Target Of Assay: Bile acid receptor (Homo sapiens) (UniProt Q96RI1)
Sequence (Q96RI1 whole entry, looked up): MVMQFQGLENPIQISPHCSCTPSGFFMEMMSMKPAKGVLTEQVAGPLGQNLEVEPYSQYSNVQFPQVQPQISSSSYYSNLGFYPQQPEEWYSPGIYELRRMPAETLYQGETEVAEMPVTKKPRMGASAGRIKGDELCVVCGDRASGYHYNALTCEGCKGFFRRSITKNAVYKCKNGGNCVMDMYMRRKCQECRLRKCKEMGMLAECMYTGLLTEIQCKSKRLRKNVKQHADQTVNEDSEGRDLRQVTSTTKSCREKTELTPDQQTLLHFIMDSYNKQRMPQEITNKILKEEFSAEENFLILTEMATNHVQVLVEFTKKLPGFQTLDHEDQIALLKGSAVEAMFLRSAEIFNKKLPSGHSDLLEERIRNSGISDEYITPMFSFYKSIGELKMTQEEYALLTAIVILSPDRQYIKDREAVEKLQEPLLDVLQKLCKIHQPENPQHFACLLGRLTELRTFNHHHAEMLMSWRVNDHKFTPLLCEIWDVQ
Protocol Notes: qHTS assay for small molecule agonists of farnesoid X receptor signaling (AID 588527);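 further: series mostly up to about 77 µM; 0% = vehicle basal and 100% = reference agonist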
Conditions: HEK293T FXR-UAS-bla, beta-lactamase ratio, 16 h; stronger effect = higher value
Inconclusive results are not listed.
Consider the following compounds; for each one, report its activation.
Answers are plain numbers, in %.

The following compounds have reported results that may help.
>  <Structure As Smiles>
CC1(C)[C@@H]([C@@H](Br)C(Br)(Br)Br)[C@H]1C(=O)O[C@H](C#N)c1cccc(Oc2ccccc2)c1

>  <Scale Unit>
%

>  <Observed Result>
6.35

$$$$
>  <Structure As Smiles>
CCCCCCCCCCCC(=O)OC

>  <Scale Unit>
%

>  <Observed Result>
11.1

$$$$
>  <Structure As Smiles>
CC(=O)Nc1cccc(N)c1

>  <Scale Unit>
%

>  <Observed Result>
-3.44

$$$$

Let us move to another entry and its activation.
Lookup: # activation lookup, item CCCCCCCCCCCCO
Found: -2.63

====

Target Of Assay: Thyroid hormone receptor beta (Homo sapiens) (UniProt P10828)
Sequence (P10828 whole entry, looked up): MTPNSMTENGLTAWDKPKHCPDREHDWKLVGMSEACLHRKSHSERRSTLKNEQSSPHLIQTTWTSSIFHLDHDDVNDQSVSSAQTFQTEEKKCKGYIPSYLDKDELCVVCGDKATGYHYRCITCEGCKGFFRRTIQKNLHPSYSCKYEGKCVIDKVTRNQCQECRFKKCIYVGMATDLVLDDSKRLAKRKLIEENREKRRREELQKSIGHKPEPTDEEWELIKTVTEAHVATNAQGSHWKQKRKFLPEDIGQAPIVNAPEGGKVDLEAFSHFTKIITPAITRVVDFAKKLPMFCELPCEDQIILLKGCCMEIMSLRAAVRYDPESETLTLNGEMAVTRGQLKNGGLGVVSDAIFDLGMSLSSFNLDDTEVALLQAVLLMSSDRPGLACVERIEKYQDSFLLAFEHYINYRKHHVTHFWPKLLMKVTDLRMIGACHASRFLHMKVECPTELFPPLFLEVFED
Protocol Notes: qHTS assay for small molecule antagonists of thyroid hormone receptor beta signaling (AID 588547);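 further: cells stimulated with 0.4 nM T3 agonist during compound exposure; series mostly up to about 77 µM; on the % scale 0 is the no-effect control and ±100 the full control effect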
Conditions: TR-UAS-bla HEK293, beta-lactamase ratio, antagonist mode, 18 h
Records with an inconclusive call do not appear.
Consider the following compounds; for each one, report its activity change % (negative = inhibition).
One number for each entry, in %.

>  <Compound>
O=c1[nH]c2ccccc2c(=O)o1

>  <Observed Result>
-10.7

$$$$
>  <Compound>
CSC(=O)c1c(C(F)F)nc(C(F)(F)F)c(C(=O)SC)c1CC(C)C

>  <Observed Result>
-31.5

$$$$
>  <Compound>
CC1(C)Cc2cccc(O)c2O1

>  <Observed Result>
-2.82

$$$$
>  <Compound>
C1=Cc2cccc3cccc1c23

>  <Observed Result>
1.99

$$$$
>  <Compound>
CCOP(=S)(OCC)SCn1c(=O)oc2cc(Cl)ccc21

>  <Observed Result>
-26.9

$$$$

Dear reader, for each entry below, please note its activity change % (negative = inhibition).
1. C/C=C(\C)C(=O)O[C@H]1C[C@@H](OC(C)=O)[C@@]2(C(=O)OC)CO[C@H]3[C@@H](O)[C@@](C)([C@]45O[C@@]4(C)[C@H]4C[C@@H]5O[C@@H]5OC=C[C@@]54O)[C@H]4[C@]1(CO[C@]4(O)C(=O)OC)[C@@H]32
2. Cc1c(F)c(F)c(COC(=O)C2C(/C=C(\Cl)C(F)(F)F)C2(C)C)c(F)c1F (stereo not drawn)

Found:
1: 7.18; 2: 16.3

These data points were gathered from PubChem BioAssay (NCATS).
